- test_method_notes: HepG2 cytotoxicity, primary screen, cytotoxicity control for P. falciparum antimalarial project, cell-based, ATP luminescence (AID 2303)
- condition_description: HepG2 viability, 24-48 h, at 10 µM
Active and inactive are the calls of the source.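 Rule for the calls: active = inhibition above 50%; inactive = the rest.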
Labels: t (active), f (inactive)

{"compound": "CC(C)c1cccc(OCC2CCN(c3ncc(C(=O)NC4CC4)cc3Cl)CC2)c1", "class": "f"}
{"compound": "Cc1cccc2[nH]c(-c3cccc(-c4ccc(NC(=O)C(C)(C)c5ccccn5)cc4)c3)nc12", "class": "f"}
{"compound": "Cc1cc(N(C)CCN(C)C)nc(Nc2ccc(Br)cc2)n1", "class": "f"}
{"compound": "CCC[C@@H]([C@@H](CC(C)C)C(=O)N[C@@H](CCCCNC(=O)c1cccc(OC)c1)C(=O)Nc1nccs1)N(O)C=O", "class": "f"}
{"compound": "CCn1c(C)c(C)c2cc(C(=O)Nc3ccon3)ccc21", "class": "f"}
{"compound": "COc1ccc2ccc(OC)c(CNCCCCCCNCc3c(OC)ccc4ccc(OC)cc34)c2c1", "class": "t"}
{"compound": "CCOc1ccc(-c2nonc2NC(=O)c2ccc(OC)cc2)cc1OCC", "class": "f"}
{"compound": "COc1ccccc1C1CC(c2ccc(Br)cc2)=NN1C(=O)c1ccccc1 (stereo not given)", "class": "f"}
{"compound": "COc1ccccc1-c1ccc(CNC(=O)C(CN2CCN(C)CC2)c2ccccc2)cc1 (stereo not given)", "class": "f"}
{"compound": "O=C(NC1CCCCN(Cc2ccccc2O)C1)c1cccc(Cl)c1 (stereo not given)", "class": "f"}
{"compound": "CC(CN1CCN(C)CC1)C(=O)Nc1cccc(-c2ccc(-c3nc4ccc(F)cc4[nH]3)cc2)c1 (stereo not given)", "class": "f"}
{"compound": "N#Cc1cccc(C(=O)Nc2ccc(-c3nc4ccccc4[nH]3)cc2)c1", "class": "f"}
{"compound": "CN1CC[C@@H](Oc2cc(NC(=O)Nc3ccc(Cl)c(C(F)(F)F)c3)ccc2Cl)C1", "class": "f"}
{"compound": "O=C(/C=C/c1ccc(-c2nc3ccc(Cl)cc3[nH]2)cc1)NCc1cccc(F)c1", "class": "f"}
{"compound": "O=S(=O)(c1cccc(F)c1)c1ccc(Nc2ncnc3cc(Br)sc23)cc1Cl", "class": "f"}
{"compound": "N#Cc1ccc(S(=O)(=O)N2C(c3cccc([N+](=O)[O-])c3)C(C(=O)c3ccccc3)N(C3CCCCC3)C2c2cccc([N+](=O)[O-])c2)cc1 (stereo not given)", "class": "f"}
{"compound": "COc1cccc(C23N=C(Nc4nc5ccccc5[nH]4)NC2(c2cccc(OC)c2)NC(Nc2nc4ccccc4[nH]2)=N3)c1 (stereo not given)", "class": "f"}
{"compound": "FC(F)(F)COc1ccc(CNCCCCCCNCc2ccc(OCC(F)(F)F)c3ccccc23)c2ccccc12", "class": "t"}
{"compound": "CCCNCc1ccc(-c2ccc(CN(CC3CCCO3)C(=O)COc3ccccc3Cl)cc2)nc1 (stereo not given)", "class": "f"}
{"compound": "CN(C)CCCNCc1ccc(-c2ccc(CNCCOc3ccccc3)cc2)cc1", "class": "f"}
{"compound": "COc1ccc(CCCc2nc(N)nc(N)c2-c2ccc(Cl)cc2)cc1", "class": "t"}
{"compound": "Oc1ccc(-c2cc(-c3ccc(O)cc3)nc(-c3ccccc3)n2)cc1", "class": "f"}
{"compound": "CCCCCCN=C(N)c1ccc(OCCCCCOc2ccc(C(N)=NCCCCCC)cc2)cc1", "class": "t"}
{"compound": "COc1cccc(CN2CCC(N3CCc4cc(NC(=O)c5cc(C)on5)ccc43)C2)c1OC (stereo not given)", "class": "f"}
{"compound": "COc1ccc(OCCCON)cc1", "class": "f"}
